Origin of values: patent US7998965B2

Molecular target: recombinant human MMP-2 (Homo sapiens)
Sequence (P08253 110-660): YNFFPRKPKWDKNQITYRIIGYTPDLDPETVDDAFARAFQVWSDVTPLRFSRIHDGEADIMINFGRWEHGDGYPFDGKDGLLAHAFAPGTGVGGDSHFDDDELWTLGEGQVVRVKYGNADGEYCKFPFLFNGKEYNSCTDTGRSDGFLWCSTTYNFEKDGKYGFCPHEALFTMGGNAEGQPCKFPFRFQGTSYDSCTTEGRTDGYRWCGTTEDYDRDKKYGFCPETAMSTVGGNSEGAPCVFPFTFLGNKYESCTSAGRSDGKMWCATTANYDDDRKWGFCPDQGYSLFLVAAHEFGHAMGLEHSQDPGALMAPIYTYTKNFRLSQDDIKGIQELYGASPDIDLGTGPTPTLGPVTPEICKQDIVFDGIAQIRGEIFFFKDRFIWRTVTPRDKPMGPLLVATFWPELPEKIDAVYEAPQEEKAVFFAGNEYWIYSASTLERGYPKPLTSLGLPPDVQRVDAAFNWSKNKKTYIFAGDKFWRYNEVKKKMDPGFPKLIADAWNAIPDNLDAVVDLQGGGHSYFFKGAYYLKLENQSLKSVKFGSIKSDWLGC
Assay: In vitro fluorescence assay of MMP-2 activity
Parameter: IC50. Scope: all listed entries.

{"compound": "CC(C)(Cc1ccccc1)NC(=O)[C@H](CCC(=O)O)NC(=O)c1ccc(-c2ccc(F)cc2)cc1", "IC50": "4 µM"}
{"compound": "O=C(O)CC[C@H](NC(=O)c1ccc(-c2ccccc2)cc1)C(=O)NC1CCCC1 [Example 8G]", "IC50": "~50 µM"}
{"compound": "O=C(O)CC[C@H](NC(=O)c1ccc(-c2ccccc2)cc1)C(=O)NCc1ccc(Oc2ccccc2)cc1 [Example 8W]", "IC50": "~2.5 µM"}

----------
Parameter: IC50. Scope: all listed entries.
Target: purified recombinant human Aggrecanase-2 (Ag2t-Phe628-Strep) (Homo sapiens, UniProt Q9UNA0)
Construct: the form used is denoted as Ag2t-Phe628-Strep (MW=41,737)
Sequence (Q9UNA0 262-628): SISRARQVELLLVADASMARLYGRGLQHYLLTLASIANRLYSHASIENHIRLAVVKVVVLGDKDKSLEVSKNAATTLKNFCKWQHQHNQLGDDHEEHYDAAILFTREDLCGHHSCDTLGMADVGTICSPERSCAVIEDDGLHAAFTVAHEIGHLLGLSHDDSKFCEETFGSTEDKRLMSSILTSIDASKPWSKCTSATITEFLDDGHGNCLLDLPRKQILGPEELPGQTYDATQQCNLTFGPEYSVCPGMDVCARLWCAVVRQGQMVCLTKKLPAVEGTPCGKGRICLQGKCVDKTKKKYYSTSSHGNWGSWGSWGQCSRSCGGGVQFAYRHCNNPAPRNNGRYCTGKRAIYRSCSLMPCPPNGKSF
Assay: In vitro fluorescence screen for Aggrecanase-2 inhibitors
Format: biochemical
Settings: Table 2; read-out: Agg 2 IC50
observed.property: IC50

{"molecule": "COc1ccc(-c2ccc(C(=O)NC(CCC(=O)O)C(=O)NCc3cc(OC)c(OC)c(OC)c3)cc2)cc1C (stereo not drawn) [Example 17M]", "observed.property": "IC50", "measured": "> 11 µM"}
{"molecule": "O=C(O)CC[C@H](NC(=O)c1ccc(/C=C/C(=O)c2ccccc2)cc1)C(=O)NCc1ccccc1 [Example 12I]", "observed.property": "IC50", "measured": "> 20 µM"}
{"molecule": "COc1cc(CNC(=O)[C@H](CCC(=O)O)NC(=O)c2ccc(-c3cc(OC)c(OC)c(OC)c3)cc2)cc(OC)c1OC [Example 17H]", "observed.property": "IC50", "measured": "~22 µM"}

----------
Parameter: pIC50. Scope: all listed entries.
Biological target: purified recombinant human Aggrecanase-1 (rAgg1) (Homo sapiens, UniProt O75173)
Test: In vitro fluorescence screen for Aggrecanase-1 inhibitors
Assay type: biochemical
Details: Table 2; read-out: Agg1 IC50
pIC50: −log10 of the molar value.

{"compound": "COc1ccc(-c2ccc(C(=O)NC(CCC(=O)O)C(=O)NCc3cc(OC)c(OC)c(OC)c3)cc2)cc1C (stereo not drawn) [Example 17M]", "pIC50": "~6.51"}
{"compound": "O=C(O)CC[C@H](NC(=O)c1ccc(-c2ccc3ccccc3c2)cc1)C(=O)NCc1ccccc1 [Example 12F]", "pIC50": "~5.52"}
{"compound": "Cc1cccc(CNC(=O)[C@H](CCC(=O)O)NC(=O)c2ccc(Br)cc2)c1 [Example 18G]", "pIC50": "~5.08"}

----------
Molecular target: purified recombinant human Aggrecanase-2 (Ag2t-Phe628-Strep) (Homo sapiens, UniProt Q9UNA0)
Construct: the form used is denoted as Ag2t-Phe628-Strep (MW=41,737)
Test: In vitro fluorescence screen for Aggrecanase-2 inhibitors
Assay type: biochemical
Details: Table 3; read-out: Agg 2 IC50

{"substance.smiles": "CC(C)(Cc1ccc(F)cc1)NC(=O)[C@H](CCC(=O)O)NC(=O)c1ccc(-c2ccco2)cc1", "IC50": "0.1 to 0.4 µM"}
{"substance.smiles": "CC(C)(Cc1ccc(Cl)cc1)NC(=O)[C@H](CCC(=O)O)NC(=O)c1ccc(-c2ccc(F)cc2)s1", "IC50": "0.03 to 0.1 µM"}
{"substance.smiles": "COc1cccc(-c2ccc(C(=O)N[C@@H](CCC(=O)O)C(=O)NC(C)(C)Cc3ccc(Cl)cc3)s2)c1", "IC50": "0.2 to 0.6 µM"}

----------
Biological target: purified recombinant human Aggrecanase-2 (Ag2t-Phe628-Strep) (Homo sapiens)
Construct: the form used is denoted as Ag2t-Phe628-Strep (MW=41,737)
Assay: In vitro fluorescence screen for Aggrecanase-2 inhibitors
Assay type: biochemical
Details: Table 2; read-out: Agg 2 IC50
Parameter: IC50. Scope: all listed entries.
observed.property: IC50

{"molecule": "Nc1cccc(C#Cc2ccc(C(=O)N[C@@H](CCC(=O)O)C(=O)NCc3ccccc3)cc2)c1 [Example 12J]", "measured": "~22 µM"}
{"molecule": "O=C(O)CC[C@H](NC(=O)C1c2ccccc2-c2ccccc21)C(=O)NCc1ccccc1 [Example 8KKKKK]", "measured": "> 22 µM"}
{"molecule": "CN(C)C(=O)c1cccc(-c2ccc(C(=O)N[C@@H](CCC(=O)O)C(=O)NCC34CC5CC(CC(C5)C3)C4)cc2)c1 [Example 17W]", "measured": "~67 µM"}
{"molecule": "CC(C)(Cc1ccccc1)NC(=O)[C@H](CCC(=O)O)NC(=O)c1ccc(-c2ccc(-c3ccccc3)cc2)cc1 [Example 17U]", "measured": "~6.7 µM"}
{"molecule": "COc1cc(CNC(=O)[C@H](CCC(=O)O)NC(=O)C2c3ccccc3-c3ccccc32)cc(OC)c1OC [Example 8VVVV]", "measured": "> 67 µM"}
{"molecule": "COc1cc(CNC(=O)[C@H](CCC(=O)O)NC(=O)c2ccc(-c3cccc(C(=O)O)c3)cc2)cc(OC)c1OC [Example 17D]", "measured": "> 200 µM"}

----------
Biological target: purified recombinant human Aggrecanase-1 (rAgg1) (Homo sapiens)
Sequence (O75173 213-837): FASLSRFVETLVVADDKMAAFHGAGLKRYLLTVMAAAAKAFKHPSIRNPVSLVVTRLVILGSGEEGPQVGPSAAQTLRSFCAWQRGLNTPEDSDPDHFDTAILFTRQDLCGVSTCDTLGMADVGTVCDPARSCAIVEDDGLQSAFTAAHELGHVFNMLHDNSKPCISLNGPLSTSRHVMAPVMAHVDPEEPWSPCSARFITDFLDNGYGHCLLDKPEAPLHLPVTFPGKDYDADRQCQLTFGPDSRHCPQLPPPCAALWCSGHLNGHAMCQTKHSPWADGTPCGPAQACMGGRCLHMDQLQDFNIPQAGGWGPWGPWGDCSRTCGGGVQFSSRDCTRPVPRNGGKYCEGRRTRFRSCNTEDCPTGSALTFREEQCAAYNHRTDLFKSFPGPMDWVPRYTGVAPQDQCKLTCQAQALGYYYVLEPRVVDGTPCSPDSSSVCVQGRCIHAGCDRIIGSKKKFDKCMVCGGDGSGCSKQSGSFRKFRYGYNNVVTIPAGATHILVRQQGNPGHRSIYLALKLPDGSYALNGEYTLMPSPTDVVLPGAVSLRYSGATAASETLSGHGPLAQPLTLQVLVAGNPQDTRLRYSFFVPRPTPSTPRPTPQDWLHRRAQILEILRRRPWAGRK
Assay: In vitro fluorescence screen for Aggrecanase-1 inhibitors
Assay type: biochemical
Settings: Table 2; read-out: Agg1 IC50
pIC50: −log10 of the molar value.

{"molecule": "CCOc1cccc(-c2ccc(C(=O)N[C@@H](CCC(=O)O)C(=O)NCc3cc(OC)c(OC)c(OC)c3)cc2)c1 [Example 16]", "pIC50": "> 7.52"}
{"molecule": "COc1ccc(-c2ccc(C(=O)N[C@@H](CCC(=O)O)C(=O)NC(C)(C)Cc3ccccc3)cc2)cc1OC [Example 17J]", "pIC50": "~5.25"}
{"molecule": "CCOc1cccc(-c2ccc(C(=O)N[C@@H](CCC(=O)O)C(=O)NC(C)(C)Cc3ccc(F)cc3)cc2)c1 [Example 17DD]", "pIC50": "> 7.52"}
{"molecule": "COc1cccc(-c2ccc(C(=O)N[C@@H](CCC(=O)O)C(=O)NC(C)(C)Cc3ccccc3)cc2)c1 [Example 17I]", "pIC50": "> 7.52"}

----------
Parameter: IC50. Scope: all listed entries.
Target: purified recombinant human Aggrecanase-2 (Ag2t-Phe628-Strep) (Homo sapiens, UniProt Q9UNA0)
Construct: the form used is denoted as Ag2t-Phe628-Strep (MW=41,737)
Sequence (Q9UNA0 262-628): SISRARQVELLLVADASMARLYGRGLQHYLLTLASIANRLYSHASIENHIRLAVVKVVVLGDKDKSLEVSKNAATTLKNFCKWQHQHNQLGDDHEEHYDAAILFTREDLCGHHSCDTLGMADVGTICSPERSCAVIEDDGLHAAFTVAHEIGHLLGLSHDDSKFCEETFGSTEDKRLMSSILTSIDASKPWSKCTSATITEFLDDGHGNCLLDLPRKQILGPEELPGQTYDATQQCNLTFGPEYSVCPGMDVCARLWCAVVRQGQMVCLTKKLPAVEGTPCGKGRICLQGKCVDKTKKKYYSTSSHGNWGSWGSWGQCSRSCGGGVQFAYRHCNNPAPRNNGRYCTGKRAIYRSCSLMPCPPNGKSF
Assay: In vitro fluorescence screen for Aggrecanase-2 inhibitors
Type: biochemical
Details: Table 3; read-out: Agg 2 IC50

{"substance.smiles": "CC(C)(Cc1ccc(F)cc1)NC(=O)[C@H](CCC(=O)O)NC(=O)c1ccc(-c2ccc(F)cc2)s1", "IC50": "30 to 90 nM"}
{"substance.smiles": "COc1cccc(-c2ccc(C(=O)N[C@@H](CCC(=O)O)C(=O)NC(C)(C)Cc3ccccc3)s2)c1", "IC50": "70 to 200 nM"}
{"substance.smiles": "CC(C)(Cc1ccc(Cl)cc1)NC(=O)[C@H](CCC(=O)O)NC(=O)c1ccc(-c2ccc(Cl)cc2)s1", "IC50": "> 300 nM"}
{"substance.smiles": "CC(C)(Cc1ccccc1)NC(=O)[C@H](CCC(=O)O)NC(=O)c1ccc(-c2ccc(F)cc2)s1", "IC50": "30 to 300 nM"}
{"substance.smiles": "CC(C)(Cc1ccc(Cl)cc1)NC(=O)[C@H](CCC(=O)O)NC(=O)c1ccc(-c2ccccc2)s1", "IC50": "200 to 600 nM"}
{"substance.smiles": "CC(C)(Cc1ccc(F)cc1)NC(=O)[C@H](CCC(=O)O)NC(=O)c1ccc(-c2ccc3c(c2)OCC3)cc1", "IC50": "200 to 600 nM"}
{"substance.smiles": "CC(C)(Cc1ccc(Cl)cc1)NC(=O)[C@H](CCC(=O)O)NC(=O)c1ccc(-c2ccc(Br)s2)cc1", "IC50": "30 to 100 nM"}
